Origin of measurements: ChEMBL document CHEMBL2086265

test: Half life in mouse at 5 mg/kg, iv and 40 mg/kg, po; assay type: ADME, organism-based; details: in vivo
metricName: half-life (h)

1 = C#CCn1c(=O)c2c(-c3cncn3C)n(Cc3ccnc4ccc(Cl)cc34)nc2n(CC2CC2)c1=O
2 = Cn1cncc1-c1c2c(=O)n(C)c(=O)n(CC3CC3)c2nn1Cc1ccnc2ccc(Cl)cc12
Problem: Lower value for measured half-life? Options: 1 , 2 Let me know the label of the one you choose.
Solution: 2
(2: 0.7 h, 1: 2.1 h)

* * *

Notes on IC50 obtained with Glutamate racemase (Helicobacter pylori J99).
Sequence (Q9ZLT0 whole entry): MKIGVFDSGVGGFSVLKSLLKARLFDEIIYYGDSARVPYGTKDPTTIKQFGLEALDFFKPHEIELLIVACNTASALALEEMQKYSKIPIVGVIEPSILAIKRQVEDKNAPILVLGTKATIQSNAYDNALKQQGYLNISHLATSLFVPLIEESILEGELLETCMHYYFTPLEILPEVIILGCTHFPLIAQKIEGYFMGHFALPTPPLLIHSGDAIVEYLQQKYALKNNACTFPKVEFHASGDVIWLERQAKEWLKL
metricName: IC50 (nM)

[[record]]
structuresmiles = "Cn1cc(C#N)cc1-c1c2c(=O)n(CCO)c(=O)n(CC3CC3)c2nn1Cc1ccnc2ccc(Cl)cc12"
reading = 88


a = C=CCn1c(=O)c2c(-c3nc(C#N)cn3C)n(Cc3ccnc4ccc(Cl)cc34)nc2n(CC2CC2)c1=O
b = Cn1cc(C#N)cc1-c1c2c(=O)n(C)c(=O)n(CC3CC3)c2nn1Cc1ccnc2ccc(Cl)cc12
Problem: Lower value for measured IC50? Options: a , b Let me know the label of the one you choose.
Solution: b
(b: 25 nM, a: 250 nM)

I = Cc1sc(N)nc1-c1c2c(=O)n(C)c(=O)n(CC3CC3)c2nn1Cc1ccnc2ccc(Cl)cc12
II = CC#CCn1c(=O)c2c(-c3cc(C#N)cn3C)n(Cc3ccnc4ccc(Cl)cc34)nc2n(CC2CC2)c1=O
III = Cn1ncnc1-c1c2c(=O)n(C)c(=O)n(CC3CC3)c2nn1Cc1ccnc2ccc(Cl)cc12
Problem: Output the entries ranked by IC50 from maximum down to minimum. In your reply, arrange the labels in the requested order.
Solution: III, I, II
(III: 810 nM, I: 280 nM, II: 74 nM)

* * *

experiment: Dissociation constant, pKa of the compound; type: physicochemical
metricName: pKa
Respond numerically, and do not add a unit to the figure.

Problem: Please look at this compound and report its pKa: `C#CCn1c(=O)c2c(-c3cncn3C)n(Cc3ccnc4ccc(Cl)cc34)nc2n(CC2CC2)c1=O`
Solution: 7.2

* * *

tested on: Helicobacter pylori; assay: Antibacterial activity against AcrAB-TolC efflux pump-dificient Helicobacter pylori; type: functional
metricName: MIC (µg/mL)

[[record]]
structuresmiles = "Cn1cc(C#N)nc1-c1c2c(=O)n(C)c(=O)n(CC3CC3)c2nn1Cc1ccnc2ccc(Cl)cc12"
metricname = "MIC"
reading = 2

[[record]]
structuresmiles = "C=CCn1c(=O)c2c(-c3cncn3C)n(Cc3ccnc4ccc(Cl)cc34)nc2n(CC2CC2)c1=O"
metricname = "MIC"
reading = 0.8

[[record]]
structuresmiles = "CC#CCn1c(=O)c2c(-c3cncn3C)n(Cc3ccnc4ccc(Cl)cc34)nc2n(CC2CC2)c1=O"
metricname = "MIC"
reading = 2

[[record]]
structuresmiles = "Cn1cc(C#N)cc1-c1c2c(=O)n(CC#N)c(=O)n(CC3CC3)c2nn1Cc1ccnc2ccc(Cl)cc12"
metricname = "MIC"
reading = 1

[[record]]
structuresmiles = "Cn1ncnc1-c1c2c(=O)n(C)c(=O)n(CC3CC3)c2nn1Cc1ccnc2ccc(Cl)cc12"
metricname = "MIC"
reading = 4


A = Cn1cc(C#N)cc1-c1c2c(=O)n(CC#CCO)c(=O)n(CC3CC3)c2nn1Cc1ccnc2ccc(Cl)cc12
B = C=CCn1c(=O)c2c(-c3nc(C#N)cn3C)n(Cc3ccnc4ccc(Cl)cc34)nc2n(CC2CC2)c1=O
C = Cn1cncc1-c1c2c(=O)n(C)c(=O)n(CC3CC3)c2nn1Cc1ccnc2ccc(Cl)cc12
Problem: Output the entries ranked by MIC from maximum down to minimum. In your reply, arrange the labels in the requested order.
Solution: A, B, C
(A: 16 µg/mL, B: 4 µg/mL, C: 0.25 µg/mL)
